System: MDA-MB-231 (breast cancer)
Experiment: MTT antiproliferative assay, MDA-MB-231
Format: cell-based
Conditions: Homo sapiens, MDA-MB-231, 10 μM, 48 or 72 h, read-out: inhibition of cell growth, MDA-MB-231
Known inhibition at 10 µM of a selection of compounds

Examples from the recorded data:
1. COC(=O)[C@]1(C)CC[C@]2(C)CC[C@]3(C)C4=CC=C5C(=C/C(=C\C#N)C(=O)C5(C)O)[C@]4(C)CC[C@@]3(C)[C@@H]2C1 (stereo partly drawn) [Compound A37] : ≥ 80%
2. CO[C@]1(C)C(=O)C(=O)C=C2C1=CC=C1[C@@]2(C)CC[C@@]2(C)[C@@H]3C[C@](C)(C(=O)O)CC[C@]3(C)CC[C@]12C [Compound A1] : 50 to 80%

Tested system MDA-MB-231 (breast cancer); inhibition at 10 µM recorded for CC(=O)OC1(C)C(=O)C(=O)C=C2C1=CC=C1[C@@]2(C)CC[C@@]2(C)[C@@H]3C[C@](C)(C(=O)O)CC[C@]3(C)CC[C@]12C (stereo partly drawn) [Compound A3] was < 30%
